- tested target: human fascin 1 (Homo sapiens)
- Construct: GST (N, cleaved yes); made in house; host or cells: Escherichia coli BL21/DE3 (pGEX4T-fascin 1 plasmid)
- experiment notes: Fascin inhibition (actin bundling) assay, image-based
- Type: biochemical
- run parameters: in the presence of 50 μm of the compound relative to bundle activity when the compound was not present; read-out: Inhibition (percentage reduction of bundle activity)
The following compounds are shown together with reported inhibition at 50 µM values.

Cc1cccc(C(=O)Nc2nn(Cc3ccc(C(F)(F)F)cc3)c3ccccc23)c1 : < 10%
Cc1cc(C(=O)Nc2nn(Cc3ccc(C(F)(F)F)cc3)c3ccccc23)oc1C : < 10%
Cc1ccc(-c2nn(Cc3ccc(C(F)(F)F)cc3)c3ccccc23)o1 : 10%
O=C(Nc1nn(Cc2ccc(C(F)(F)F)nc2)c2cccc(Cl)c12)c1cccnn1 : < 10%
O=C(Nc1nn(Cc2ccc(C(F)(F)F)nc2)c2ccccc12)c1ccoc1 : < 10%

Input: Given the entry Nc1nn(Cc2ccc(C(F)(F)F)cc2)c2ccc(C(F)(F)F)cc12 , report its measured inhibition at 50 µM.
Output: < 10%

Input: Given the entry CC(C)C(=O)Nc1nn(Cc2ccc(C(F)(F)F)cc2)c2cncc(Cl)c12 , report its measured inhibition at 50 µM.
Output: 100%

Input: Given the entry Cc1ncsc1C(=O)Nc1nn(Cc2ccc(C(F)(F)F)cc2)c2cc(C(F)(F)F)ccc12 , report its measured inhibition at 50 µM.
Output: < 10%

Input: Given the entry O=C(Nc1nn(Cc2ccc(C(F)(F)F)cc2)c2ccccc12)c1cnccn1 , report its measured inhibition at 50 µM.
Output: < 10%

Input: Given the entry Cc1nocc1C(=O)Nc1nn(Cc2ccc(C(F)(F)F)cc2)c2cncc(Cl)c12 , report its measured inhibition at 50 µM.
Output: 10%

Input: Given the entry O=C(Nc1nn(Cc2ccc(C(F)(F)F)cc2)c2ccccc12)c1ccccc1Cl , report its measured inhibition at 50 µM.
Output: 50%

Input: Given the entry Cc1occc1C(=O)Nc1nn(Cc2ccc(C(F)(F)F)nc2)c2ccccc12 , report its measured inhibition at 50 µM.
Output: < 10%

---

- tested target: human fascin 1 (Homo sapiens, UniProt Q16658)
- Construct: GST (N, cleaved yes); made in house; host or cells: Escherichia coli BL21/DE3 (pGEX4T-fascin 1 plasmid)
- experiment notes: Fascin inhibition (actin bundling) assay, image-based
- Format: biochemical
- run parameters: in the presence of 50 μm of the compound relative to bundle activity when the compound was not present; read-out: Inhibition (percentage reduction of bundle activity)
reported endpoint: inhibition at 50 µM

O=C(Nc1nn(Cc2ccc(C(F)(F)F)cc2)c2ccccc12)c1cnco1 : 100%
Cc1ccc2c(NC(=O)c3ccoc3)nn(Cc3ccc(C(F)(F)F)cc3)c2n1 : < 10%
N#Cc1ccc(Cn2nc(NC(=O)c3cccnn3)c3ccccc32)cc1 : < 10%
N#Cc1ccc(Cn2nc(N)c3ccccc32)cc1 : < 10%
O=C(Nc1nn(Cc2ccc(Cl)cc2)c2ccccc12)c1ccoc1 : 50%
O=C(Nc1nn(Cc2ccc(C(F)(F)F)cc2)c2ccccc12)c1ccno1 : 100%
Cc1ncsc1C(=O)Nc1nn(Cc2ccc(C(F)(F)F)cc2)c2cccc(Cl)c12 : < 10%
Cc1ccc2c(NC(=O)c3cccnn3)nn(Cc3ccc(C(F)(F)F)nc3)c2n1 : < 10%
O=C(Nc1nn(Cc2ccc(C(F)(F)F)cc2)c2cc(C(F)(F)F)ccc12)c1ccoc1 : < 10%
O=C(Nc1nn(Cc2ccc(F)cc2)c2ccccc12)c1ccoc1 : < 10%

Input: Given the entry Cc1ccc2c(NC(=O)c3ccoc3C)nn(Cc3ccc(C(F)(F)F)cc3)c2n1 , report its measured inhibition at 50 µM.
Output: < 10%

Input: Given the entry Cc1ocnc1C(=O)Nc1nn(Cc2ccc(C(F)(F)F)cc2)c2ccccc12 , report its measured inhibition at 50 µM.
Output: 60%

Input: Given the entry Cc1nocc1C(=O)Nc1nn(Cc2ccc(F)cc2)c2ccccc12 , report its measured inhibition at 50 µM.
Output: < 10%
